For each record, write down the corresponding Kd.
# assayed-target: T1, Human VSIG4-L-His (human, UniProt Q9Y279 20-283)
# T1 construct: long isoform ECD with His tag; also called hVSIG4-L
# T1 sequence: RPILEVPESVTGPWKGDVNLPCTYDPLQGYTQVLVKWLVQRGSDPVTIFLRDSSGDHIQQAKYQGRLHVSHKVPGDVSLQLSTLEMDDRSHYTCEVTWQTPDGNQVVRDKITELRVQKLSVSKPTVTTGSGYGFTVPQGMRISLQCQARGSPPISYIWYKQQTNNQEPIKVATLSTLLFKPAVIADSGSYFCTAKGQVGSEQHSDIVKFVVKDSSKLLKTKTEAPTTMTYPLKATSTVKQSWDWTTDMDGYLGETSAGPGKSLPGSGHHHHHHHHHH
# assay-explanation: BLI (Octet), mouse IgG on AMC sensor, antigen 100 nM;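 also: octet Red384 biolayer interferometry with immobilized mouse hybridoma antibodies, 300 s association then 300 s dissociation at 30 °C, isotype-control reference subtraction, 1:1 global fit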
Kindly answer with a numeric value in nM, unit omitted.

Looking for the measured Kd of 1H7.C7 murine hybridoma antibody (antibody, V domains shown, murine IgG purified from hybridoma supernatant) VH: EVQLVESGGGLVMPGGSRRLSCAASGFTFSDSGMYWVRQAPEKGLEWIAYISSGSDTLYYAATVKGRFTISRDNAKNTLFLQMTSLRSEDTAIYYCAKRNFYGYDVMDYWGQGTSVTVSS VL: DIVMTQSHKFMSTSVGDRVSITCKASQDVSNVVAWYQQKPGQSPKLLIYSASYRYTGVPDRFAGSGSGTDFTFTISSVQAEDLAVYYCQQHYSTPWTFGGGTKLEIK , can you help?
6.83

Looking for the measured Kd of 13E11.A4 murine hybridoma antibody (antibody, V domains shown, murine IgG purified from hybridoma supernatant) VH: EVQLVESGGALVKPGGSLKLSCVASRFNLNNCVMSWIRQTPEKRLEWVATIDSGSIYTYYPDSVKGRFTISRDNAKNTLYLQMSSLRSEDTAVYYCVRHIYGYDVVDNWGQGTTLTVAS VL: DIVMTQSHKFMSTSVGDNVSITCKASQYVSNTVAWYQQKPGQSPKLLIYSASYRNTGVPDRFTGSGSGTNFTFTISNMQAEDLAFYYCQQHYTSPLTFGAGTKLELK , can you help?
1.76

Looking for the measured Kd of 10E8.B6 murine hybridoma antibody (antibody, V domains shown, murine IgG purified from hybridoma supernatant) VH: EVQLQQSGPELMKPGDSVKMSCKASGYTFTDYYMDWVKQSHGKSLEWIGYIYPNIDFTTYNQKFKGKATLTVDKSSNTAYMELHSLTSEDSAVYYCTRRDLPLHGSAYYFDYWGQGTTLTVSS VL: DIVMSQSPSSLAVSAGEKVTMSCKSSQSLLNSRTRKNYLAWYQQKPGQSPKLLIYWASTRESGVPDRFTGSGSGTDFTLTISSVQAEDLAVYYCKQSYDLFTFGSGTKLEIK , can you help?
2.13
